So I've got a bunch of compounds here, and I need their cytotoxicity at 10 µM values.
TEST_NAME: Toxicity liver stage against HepG2, at 10uM
Assay type: cell-based
Set-up: test concentration 10 uM, cell line HepG2-A16-CD81EGFP
EXPERIMENTAL_PARAMETERS: human, HepG2-A16-CD81EGFP cells; read-out: INHIBITION
Answers are plain numbers, in %.

{"COMPOUND": "CC(C)OC(=O)CNC(=O)Nc1ccc(-c2nc(C(C)C)no2)cc1", "PROPERTY": "cytotoxicity at 10 µM", "MEASURED_VALUE": -5.81}
{"COMPOUND": "CN(C)CC1CN(Cc2coc(-c3cccc(F)c3)n2)CCO1 (stereo not drawn)", "PROPERTY": "cytotoxicity at 10 µM", "MEASURED_VALUE": -17.2}
{"COMPOUND": "Cc1nc(CN2CCO[C@@H]3CN(Cc4nccs4)C[C@@H]3C2)cs1", "PROPERTY": "cytotoxicity at 10 µM", "MEASURED_VALUE": 4.8}
{"COMPOUND": "Cc1ccc(CN2CCCn3nnc(COCC4CC4)c3C2)s1", "PROPERTY": "cytotoxicity at 10 µM", "MEASURED_VALUE": -6.51}
{"COMPOUND": "O=S(=O)(c1cccs1)N1CC[C@H](O)[C@@H]1Cc1ccncc1", "PROPERTY": "cytotoxicity at 10 µM", "MEASURED_VALUE": 3.19}
{"COMPOUND": "Cc1nc(CCNC(=O)C2CC(=O)N(C(C)(C)C)C2)sc1C (stereo not drawn)", "PROPERTY": "cytotoxicity at 10 µM", "MEASURED_VALUE": -13.2}
{"COMPOUND": "Cc1noc(-c2cccnc2N(C)Cc2ccc([S+](C)[O-])cc2)n1 (stereo not drawn)", "PROPERTY": "cytotoxicity at 10 µM", "MEASURED_VALUE": 46}
{"COMPOUND": "CCOC(=O)c1sc2ccsc2c1CNC(=O)CC", "PROPERTY": "cytotoxicity at 10 µM", "MEASURED_VALUE": -5.7}
{"COMPOUND": "O=C(CCC1CC1)N1CCC(n2cc(C3(O)CCCC3)nn2)CC1", "PROPERTY": "cytotoxicity at 10 µM", "MEASURED_VALUE": 9.4}
{"COMPOUND": "O=C1N[C@@H]2CCN(C(=O)C3CC3)[C@@H]2C(=O)N1c1ccccc1", "PROPERTY": "cytotoxicity at 10 µM", "MEASURED_VALUE": 1.44}

# map each compound to its cytotoxicity at 10 µM
1. CN(C)C(=O)C1CCCN1c1ncnc2ccsc12 (stereo not drawn)
2. COCCn1cnc2ccc(NC(=O)C(C)C)cc2c1=O
3. CCn1ccnc1CN1CCN(CCC(=O)NC(C)(C)C)CC1C (stereo not drawn)

Reply text:
4.04
-9.46
-15.8

----------
TEST_NAME: Toxicity liver stage against HepG2, at 10uM
Assay type: cell-based
Parameters: test concentration 10 uM, cell line HepG2-A16-CD81EGFP
EXPERIMENTAL_PARAMETERS: human, HepG2-A16-CD81EGFP cells; read-out: INHIBITION
PROPERTY: cytotoxicity at 10 µM (%)
Numbers only, in %.

Worked examples follow.
{"COMPOUND": "COC(=O)c1ccc(N2CCN(C(=O)c3ccc(=O)n(C)c3)CC2)cc1", "VALUE_UNITS": "%", "MEASURED_VALUE": -43.9}
{"COMPOUND": "CCOCCCNC(=O)c1cc(C)nc(N2CCCC2)n1", "VALUE_UNITS": "%", "MEASURED_VALUE": 1.11}
{"COMPOUND": "Cc1cnn(-c2cccc(N3CCCC3)n2)c1", "VALUE_UNITS": "%", "MEASURED_VALUE": -6.26}
{"COMPOUND": "CC(C)C(=O)N1CCN(C(=O)CCc2nnc(-c3ccccc3)o2)CC1", "VALUE_UNITS": "%", "MEASURED_VALUE": -4.66}
{"COMPOUND": "COCC(=O)N1CCN(C(=O)c2cccs2)C[C@H]1C(=O)OC", "VALUE_UNITS": "%", "MEASURED_VALUE": -0.655}
{"COMPOUND": "Cc1noc(C)c1C(=O)N1CCC(Nc2cccnn2)CC1", "VALUE_UNITS": "%", "MEASURED_VALUE": -4.48}

# map each compound to its cytotoxicity at 10 µM
1. Cc1nnc(SCC(=O)c2cc3c(cc2Cl)NC(=O)C3)s1
2. Cc1nnsc1C(=O)NCc1cccnc1N1CCc2ccccc2C1
3. O=C1NCC(C(=O)N(Cc2cccc(Br)c2)C2CC2)N1 (stereo not given)
4. Cn1cncc1-c1nnc([C@H]2CCN(C3CCOCC3)C2)o1

Reply text:
1: 5.42; 2: 10.8; 3: 1.56; 4: -3.46
